# system: T1, recombinant human VISTA (His-tagged) (human, UniProt Q9H7M9 33-194)
# T1 construct: bought soluble protein (Sino Biological); also called hVISTA; human VISTA polypeptide
# run-description: ELISA, plate coated with human VISTA
property-measured: EC50 (nM)
Give the quantity in nM, number only.

{"binder": "anti-VISTA clone V4-C27 IgG1 (antibody, V domains shown) VH: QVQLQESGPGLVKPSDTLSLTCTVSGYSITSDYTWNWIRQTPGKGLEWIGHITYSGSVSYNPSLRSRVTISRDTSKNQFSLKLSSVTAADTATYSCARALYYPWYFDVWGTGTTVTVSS VL: EIVLTQSPATLSLSPGERATLSCRASSSVGYIHWYQQKPGQAPRPLIYATYNRATGIPARFSGSGSGTDNTLTISSLEPEDSAVYYCQQWSSYPPITFGGGTKLEVKR", "EC50 [nM]": 0.0295}

Look up EC50 for this binder: anti-VISTA clone V4-C28 IgG1 (antibody, V domains shown) VH: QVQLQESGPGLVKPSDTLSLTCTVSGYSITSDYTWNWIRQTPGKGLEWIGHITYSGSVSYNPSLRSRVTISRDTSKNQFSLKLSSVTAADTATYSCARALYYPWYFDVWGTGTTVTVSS VL: EIVLTQSPATLSLSPGERATLSCRASSSVGYIHWYQQKPGQAPRPLIYATSYRATGIPARFSGSGSGTDNTLTISSLEPEDSAVYYCQQWSSYPPITFGGGTKLEVKR 0.0346

The measured values listed here are drawn from patent US20250313631A1.
